Every entry's value here was drawn from patent US10239843B2.

Target: Human Full Length PARG (Homo sapiens (Human), UniProt Q86W56)
Sequence (Q86W56 whole entry): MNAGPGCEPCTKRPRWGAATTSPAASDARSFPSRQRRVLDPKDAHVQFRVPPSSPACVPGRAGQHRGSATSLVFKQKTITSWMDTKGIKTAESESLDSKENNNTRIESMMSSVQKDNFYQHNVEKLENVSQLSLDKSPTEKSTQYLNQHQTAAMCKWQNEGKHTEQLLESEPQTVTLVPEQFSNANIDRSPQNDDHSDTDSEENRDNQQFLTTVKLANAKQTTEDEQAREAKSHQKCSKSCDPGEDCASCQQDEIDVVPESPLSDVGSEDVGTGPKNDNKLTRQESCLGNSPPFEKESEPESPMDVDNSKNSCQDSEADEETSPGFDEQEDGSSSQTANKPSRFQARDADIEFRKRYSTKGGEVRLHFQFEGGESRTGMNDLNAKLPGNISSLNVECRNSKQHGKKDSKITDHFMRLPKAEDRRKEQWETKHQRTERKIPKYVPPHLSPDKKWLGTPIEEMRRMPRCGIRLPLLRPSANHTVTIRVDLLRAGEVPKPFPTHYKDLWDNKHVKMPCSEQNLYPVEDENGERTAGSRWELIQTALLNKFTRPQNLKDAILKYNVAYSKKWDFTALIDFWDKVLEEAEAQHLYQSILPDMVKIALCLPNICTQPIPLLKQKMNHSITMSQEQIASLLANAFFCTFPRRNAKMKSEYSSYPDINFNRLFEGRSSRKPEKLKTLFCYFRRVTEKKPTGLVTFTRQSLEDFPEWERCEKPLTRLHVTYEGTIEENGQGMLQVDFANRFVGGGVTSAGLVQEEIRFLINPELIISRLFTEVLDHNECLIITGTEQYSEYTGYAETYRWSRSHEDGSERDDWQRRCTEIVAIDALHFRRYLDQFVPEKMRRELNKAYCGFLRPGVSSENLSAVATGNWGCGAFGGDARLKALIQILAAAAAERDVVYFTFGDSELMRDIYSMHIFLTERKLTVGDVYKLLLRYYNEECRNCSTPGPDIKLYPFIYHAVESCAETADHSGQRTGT
Assay: PARG enzyme assay (TR-FRET)
Type: biochemical
Conditions: read-out: PARG Biochem IC50 Geomean
propertyLabel: log10 of IC50 (log10 of the value in nM)

{"smilesNotation": "Cn1cc(Cn2c(=O)c3cc(S(=O)(=O)NC4(C)CC4)ccc3n(CC3CCC3)c2=O)cn1", "log10 of IC50": 1.88}
{"smilesNotation": "Cc1cc(Cn2c(=O)c3cc(S(=O)(=O)NC4(C)CC4)ccc3n(CC3CCOCC3)c2=O)on1", "log10 of IC50": 2.14}
{"smilesNotation": "Cc1ccc(Cn2c(=O)n(C)c(=O)c3cc(S(=O)(=O)NC4(C)CC4)ccc32)cc1", "log10 of IC50": 3.20}
{"smilesNotation": "CCn1c(=O)n(Cc2cnn(C)c2)c(=O)c2cc(S(=O)(=O)NC3(C)CC3)c(F)cc21", "log10 of IC50": 1.78}
{"smilesNotation": "Cn1c(=O)n(Cc2cn[nH]c2)c(=O)c2cc(S(=O)(=O)NC3(C)CC3)ccc21", "log10 of IC50": 2.58}
{"smilesNotation": "Cc1ncc(Cn2c(=O)c3cc(S(=O)(=O)NC4(C)CC4)ccc3n(Cc3ccc(F)cc3)c2=O)s1", "log10 of IC50": 1.95}
{"smilesNotation": "COc1nn(Cc2cc(C)no2)c(=O)c2cc(S(=O)(=O)NC3(C)CC3)ccc12", "log10 of IC50": 3.09}
{"smilesNotation": "Cn1cc(Cn2c(=O)c3cc(S(=O)(=O)NC4(C)CC4)ccc3n(CCC(C)(C)O)c2=O)cn1", "log10 of IC50": 2.03}
